Data export: pIC50 values recorded with Human immunodeficiency virus type 1 reverse transcriptase (Human immunodeficiency virus 1).
# pIC50: negative log10 of molar concentration; output just the value

{"molecule": "Cc1cccc(C(OCCn2c([N+](=O)[O-])cnc2C)c2ccccc2)c1 (configuration not stated)", "pIC50": 6.52}
{"molecule": "Cc1ncc([N+](=O)[O-])n1CCOC(c1ccccc1)c1cccc([N+](=O)[O-])c1 (configuration not stated)", "pIC50": 6.52}
{"molecule": "Cc1ccccc1C(OCCn1c([N+](=O)[O-])cnc1C)c1ccccc1 (configuration not stated)", "pIC50": 6.70}
{"molecule": "Cc1ncc([N+](=O)[O-])n1CCOC(c1ccccc1)c1cccc(Cl)c1 (configuration not stated)", "pIC50": 6.30}
{"molecule": "Cc1ncc([N+](=O)[O-])n1CCOC(c1ccccc1)c1cccc(F)c1 (configuration not stated)", "pIC50": 6.30}
{"molecule": "Cc1ncc([N+](=O)[O-])n1CCOC(c1ccccc1)c1ccccc1F (configuration not stated)", "pIC50": 6.40}

// below: pIC50 requested for another molecule
Please tell me: pIC50 of Cc1ncc([N+](=O)[O-])n1CCOC(c1ccccc1)c1ccccc1Cl (configuration not stated) , system Human immunodeficiency virus type 1 reverse transcriptase (Human immunodeficiency virus 1)? 6.22

----------
- Tested on: MT4
- assay: Dose required to reduce the viability of mock-infected cells by 50%
- Assay type: functional
- conditionParameters: Homo sapiens
CC50 reference
Respond numerically; units are µM and should not be typed.

{"compound": "Cc1ncc([N+](=O)[O-])n1CCOC(c1ccccc1)c1ccccc1F (centres undefined)", "targetUnderTest": "MT4", "unitAbbreviation": "µM", "CC50": 63}
{"compound": "Cc1ncc([N+](=O)[O-])n1CCOC(c1ccccc1)c1ccc([N+](=O)[O-])cc1 (centres undefined)", "targetUnderTest": "MT4", "unitAbbreviation": "µM", "CC50": 111}
{"compound": "Cc1ncc([N+](=O)[O-])n1CCOC(c1ccccc1)c1ccccc1Cl (centres undefined)", "targetUnderTest": "MT4", "unitAbbreviation": "µM", "CC50": 52}
{"compound": "Cc1ccccc1C(OCCn1c([N+](=O)[O-])cnc1C)c1ccccc1 (centres undefined)", "targetUnderTest": "MT4", "unitAbbreviation": "µM", "CC50": 76}
{"compound": "Cc1ncc([N+](=O)[O-])n1CCCOC(c1ccccc1)c1ccccc1", "targetUnderTest": "MT4", "unitAbbreviation": "µM", "CC50": 96.5}
{"compound": "Cc1cc(C)cc(C(OCCn2c([N+](=O)[O-])cnc2C)c2ccccc2)c1 (centres undefined)", "targetUnderTest": "MT4", "unitAbbreviation": "µM", "CC50": 200}

Reported CC50, compound Cc1ncc([N+](=O)[O-])n1CCOC(c1ccccc1)c1ccc(Cl)c(Cl)c1 (centres undefined) : ____ 200

What does the record list as CC50 for Cc1ncc([N+](=O)[O-])n1CCOC(c1ccccc1)c1cccc([N+](=O)[O-])c1 (centres undefined) ? 92.5

Origin of the recorded values: ChEMBL document CHEMBL1135911
